molecular target: SARS-CoV-2 nsp12/7/8 (RTC) complex (Severe acute respiratory syndrome coronavirus 2, UniProt P0DTD1); assay: biochemical; assay type: biochemical; details: read-out: IC50: compound concentration required to inhibit by 50% the SARS-CoV-2 RTC enzymatic activity
property_measured: IC50 (µM)

>>> result_number("COc1ccc2cc(-c3cc(-c4cc(Cl)cc(Cl)c4)nn3[C@@H](C)c3ccc(C(=O)NCCC(=O)O)cc3)ccc2c1 [reference compound]")
11.8
>>> result_number("Cc1oc2c(C)c3oc(=O)c(CC(=O)N4C[C@H]5C[C@@H](C4)c4cccc(=O)n4C5)c(C)c3cc2c1-c1ccccc1")
28.3

---

biological target: SARS-CoV-2 nsp12/7/8 (RTC) complex (Severe acute respiratory syndrome coronavirus 2, UniProt P0DTD1); assay: biochemical; assay type: biochemical; conditions: read-out: IC50: compound concentration required to inhibit by 50% the SARS-CoV-2 RTC enzymatic activity
# IC50 per entry
property_measured: IC50 (µM)

>>> result_number("COc1ccc2cc(S(=O)(=O)N[C@H](CC(=O)N[C@H](Cc3ccc(CN4[C@H](C)CCC[C@@H]4C)cc3)C(=O)N(C)C(C)C)c3ccc4c(c3)OCO4)ccc2c1 [SSR240612, reference compound]")
85.9
>>> result_number("CC1(C)CC[C@]2(C(=O)O)CC[C@]3(C)C(=CC[C@@H]4[C@@]5(C)CC[C@H](O[C@@H]6O[C@H](C(=O)O)[C@@H](O[C@@H]7O[C@@H](CO)[C@H](O)[C@H]7O)[C@H](O)[C@H]6O)C(C)(C)[C@@H]5CC[C@]43C)[C@@H]2C1 [Narcissiflorine]")
17.2
>>> result_number("C[C@H]1[C@H](C)CC[C@]2(C(=O)O)CC[C@]3(C)C(=CC[C@@H]4[C@@]5(C)CC[C@H](O)C(C)(C)[C@@H]5CC[C@]43C)[C@H]12 [3-Epiursolic Acid]")
11.6

---

Reported IC50 values are given for each entry in this list.
target: SARS-CoV-2 nsp12/7/8 (RTC) complex (Severe acute respiratory syndrome coronavirus 2); assay: biochemical; assay type: biochemical
property_measured: IC50

>>> result("C[C@]12C=CC(=O)N[C@@H]1CC[C@@H]1[C@@H]2CC[C@]2(C)[C@@H](C(=O)Nc3cc(C(F)(F)F)ccc3C(F)(F)F)CC[C@@H]12 [Dutasteride, reference compound]")
"> 100 µM"
>>> result("Cc1ccc(-n2nc(C(C)(C)C)cc2NC(=O)Nc2ccc(OCCN3CCOCC3)c3ccccc23)cc1 [Doramapimod, reference compound]")
"> 100 µM"
>>> result("C[C@@H]1C(=O)O[C@H](C)[C@H]1C[C@@H](O)[C@](C)(O)[C@H]1CC[C@@]2(O)C3=CC(=O)[C@@H]4C[C@@H](O)[C@@H](O)C[C@]4(C)[C@H]3CC[C@]12C")
"> 100 µM"
>>> result("C=C(CC[C@@H](C(=O)O)[C@H]1[C@H](O)C[C@@]2(C)C3=C(CC[C@]12C)[C@@]1(C)CC[C@H](OC(C)=O)C(C)(C)[C@@H]1CC3)C(C)C")
"> 100 µM"
>>> result("CC[C@@]1([C@@H]2O[C@@H]([C@H]3O[C@@](O)(CO)[C@H](C)C[C@@H]3C)C[C@@H]2C)CC[C@H]([C@]2(C)CC[C@]3(C[C@H](O)[C@@H](C)[C@@H]([C@@H](C)[C@@H](OC)[C@H](C)C(=O)O)O3)O2)O1")
"> 100 µM"
>>> result("C=C(C)[C@@H]1CC[C@]2(C=O)CC[C@]3(C)[C@H](CC[C@@H]4[C@@]5(C)CC[C@H](O)C(C)(C)[C@@H]5CC[C@]43C)[C@@H]12")
"> 100 µM"
>>> result("CC(=O)c1nn(CC(=O)N2C[C@H](F)C[C@H]2C(=O)Nc2cccc(Br)n2)c2ccc(-c3cnc(C)nc3)cc12 [Danicopan, reference compound]")
"> 100 µM"
>>> result("CC1(C)[C@@H](OC(=O)CCC(=O)O)CC[C@]2(C)[C@H]3C(=O)C=C4[C@@H]5C[C@@](C)(C(=O)O)CC[C@]5(C)CC[C@@]4(C)[C@]3(C)CC[C@@H]12 [Carbenoxolone, reference compound]")
"55.8 µM"
>>> result("C[C@H]1[C@H](C)CC[C@]2(C)CC[C@]3(C)C(=CC[C@@H]4[C@@]5(C)CC[C@@H](O)[C@](C)(C(=O)O)[C@@H]5CC[C@]43C)[C@H]12")
"21.1 µM"
>>> result("C[C@H]1[C@H](C)CC[C@]2(C(=O)O)CC[C@]3(C)C(=CC[C@@H]4[C@@]5(C)C[C@@H](O)[C@H](O)[C@@](C)(CO)[C@@H]5[C@H](O)C[C@]43C)[C@H]12")
"> 100 µM"

---

system: SARS-CoV-2 (BetaCov/Belgium/GHB-03021/2020); conditions: read-out: EC50: compound concentration required to inhibit SARS-CoV-2 replication by 50%
pEC50: −log10 of the molar value.
property_measured: pEC50

>>> result_number("CC(C)C[C@H](NC(=O)OCc1ccccc1)C(=O)N[C@@H](CC1CCNC1=O)C(O)S(=O)(=O)O (stereo partly shown)")
7.22

---

molecular target: SARS-CoV-2 nsp12/7/8 (RTC) complex (Severe acute respiratory syndrome coronavirus 2, UniProt P0DTD1); assay: biochemical; assay type: biochemical; settings: primer-extension PAGE assay, 150 nM RTC, 5% DMSO, 30 min preincubation at 37 °C; mean and SD of at least 3 independent experiments
property_measured: log10 IC50 (log10 of the value in µM)

>>> result_number("CC1(C)CC[C@]2(NC(=O)C(C)(F)F)CC[C@]3(C)[C@H](C(=O)C=C4[C@@]5(C)C=C(C#N)C(=O)C(C)(C)[C@@H]5CC[C@]43C)[C@@H]2C1 [Omaveloxolone, reference compound]")
1.11
>>> result_number("C=CC(=O)N1CCN(c2nc(=O)n(-c3c(C)ccnc3C(C)C)c3nc(-c4c(O)cccc4F)c(F)cc23)[C@@H](C)C1 [Sotorasib, reference compound]")
1.67
>>> result_number("O=C(O)c1c(Cl)c(Cl)c(Cl)c(Cl)c1-c1c2cc(I)c(=O)c(I)c-2oc2c(I)c(O)c(I)cc12")
-0.60
>>> result_number("Cc1c(-c2c(F)cc(C(N)=O)c3[nH]c4c(c23)CC[C@H](C(C)(C)O)C4)cccc1-n1c(=O)c2cccc(F)c2n(C)c1=O [BMS-986142, reference compound]")
1.36
>>> result_number("Cc1oc2c(C)c3oc(=O)c(CCC(=O)N4CCC(C(=O)O)(c5ccccc5)CC4)c(C)c3cc2c1-c1ccccc1")
0.91
>>> result_number("CC(C)(C)NC(=O)c1ccc(Oc2cc(F)c(CC(=O)O)cc2Cl)c(NS(=O)(=O)c2ccc(C3CC3)cc2Cl)c1 [Vidupiprant, reference compound]")
1.80
>>> result_number("COc1cccc(OC)c1-c1cc(C(=O)NC2(C(=O)O)C3CC4CC(C3)CC2C4)nn1-c1ccnc2cc(Cl)ccc12 (stereo not drawn) [Meclinertant, reference compound]")
1.19
>>> result_number("CN1C(=O)c2c(nn(Cc3ccc(-c4cccc(F)n4)cc3)c2Nc2ccccc2)N2C1=N[C@@H]1CCC[C@@H]12 [Lenrispodun, reference compound]")
1.38
>>> result_number("Nc1nc(Nc2ccc3c(c2)CC[C@@H](N2CCCC2)CC3)nn1-c1cc2c(nn1)-c1ccccc1CCC2 [Bemcentinib, reference compound]")
1.27
>>> result_number("Cc1cnc(C(=O)N[C@H]2CCCCC/C=C\\[C@@H]3C[C@@]3(C(=O)NS(=O)(=O)C3CC3)NC(=O)[C@@H]3C[C@@H](Oc4nc5ccccc5c5ccccc45)CN3C2=O)cn1 [Paritaprevir, reference compound]")
1.63

---

molecular target: SARS-CoV-2 nsp12/7/8 (RTC) complex (Severe acute respiratory syndrome coronavirus 2); experiment: biochemical; type: biochemical
property_measured: IC50

>>> result("CC(=O)OC(C)(C)/C=C/C(=O)[C@](C)(O)[C@H]1[C@H](O)C[C@@]2(C)[C@@H]3CC=C4[C@@H](C=C(O)C(=O)C4(C)C)[C@]3(C)C(=O)C[C@]12C")
"47.2 µM"
>>> result("CN(C(=O)c1ccc(F)cc1C(F)(F)F)C1CCN(c2nnc(-c3ccnn3C)c3ccccc23)CC1 [Taladegib, reference compound]")
"> 100 µM"
>>> result("C[C@H]1[C@H](C)CC[C@]2(C(=O)O)CC[C@]3(C)C(=CC[C@@H]4[C@@]5(C)CCC(=O)C(C)(C)[C@@H]5CC[C@]43C)[C@H]12")
"26.5 µM"
>>> result("CC(C)(O)/C=C/C(=O)[C@](C)(O)[C@H]1[C@H](O)C[C@@]2(C)[C@@H]3CC=C4[C@@H](C[C@H](O)C(=O)C4(C)C)[C@]3(C)C(=O)C[C@]12C")
"> 100 µM"
>>> result("C=C(C)[C@@H]1CC[C@]2(C)CC[C@]3(C)[C@H](CC[C@@H]4[C@@]5(C)CC[C@H](O)C(C)(C)[C@@H]5CC[C@]43C)[C@@H]12")
"> 100 µM"
>>> result("CC(C)=CCC[C@](C)(O[C@@H]1O[C@H](CO)[C@@H](O)[C@H](O)[C@H]1O)[C@H]1CC[C@]2(C)[C@@H]1[C@H](O)C[C@@H]1[C@@]3(C)CC[C@H](O)C(C)(C)[C@@H]3[C@@H](O)C[C@]12C [Ginsenoside F1]")
"> 100 µM"
>>> result("C[C@@H]1O[C@@H](O[C@H]2CC[C@]3(C=O)[C@H]4CC[C@]5(C)[C@@H](c6ccc(=O)oc6)CC[C@]5(O)[C@@H]4CC[C@]3(O)C2)[C@H](O)[C@H](O)[C@H]1O[C@@H]1O[C@H](CO)[C@@H](O)[C@H](O)[C@H]1O")
"> 100 µM"
>>> result("C=C(C)[C@@H]1CC[C@]2(C)CC[C@]3(C)[C@H](CC[C@@H]4[C@@]5(C)CCC(=O)C(C)(C)[C@@H]5CC[C@]43C)[C@@H]12")
"> 100 µM"
>>> result("CC1(C)[C@@H](O)CC[C@]2(C)[C@H]3C(=O)C=C4[C@@H]5C[C@@](C)(C(=O)O)CC[C@]5(C)CC[C@@]4(C)[C@]3(C)CC[C@@H]12 [Enoxolone, reference compound]")
"35.5 µM"
>>> result("CC1=C(/C=C/C(C)=C/C=C/C(C)=C/C(=O)Nc2ccc(O)cc2)C(C)(C)CCC1 [Fenretinide, reference compound]")
"> 100 µM"
